measuredTarget: T1, CRBN, Q96SW2;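 note: pooled lentiviral library of zinc finger degron-EGFP fusions in mCherry-positive Jurkat cells, FACS-sorted after compound exposure, with degron abundance counted by next-generation sequencing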
T1 chain: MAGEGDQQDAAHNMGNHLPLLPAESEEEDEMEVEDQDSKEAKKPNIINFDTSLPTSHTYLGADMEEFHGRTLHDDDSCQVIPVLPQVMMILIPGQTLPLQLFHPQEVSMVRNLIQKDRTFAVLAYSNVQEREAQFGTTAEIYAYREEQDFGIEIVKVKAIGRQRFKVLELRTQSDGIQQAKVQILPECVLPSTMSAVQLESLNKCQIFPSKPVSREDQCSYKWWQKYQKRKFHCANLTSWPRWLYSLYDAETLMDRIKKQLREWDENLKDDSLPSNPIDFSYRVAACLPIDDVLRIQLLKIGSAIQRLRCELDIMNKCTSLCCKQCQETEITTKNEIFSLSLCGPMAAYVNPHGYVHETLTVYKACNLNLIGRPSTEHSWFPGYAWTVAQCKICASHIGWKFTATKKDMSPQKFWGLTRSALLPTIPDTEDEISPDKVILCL
protocolDescription: log2 fold change of degron read counts, EGFP-low vs EGFP+ sorted cells (limma voom), compound-induced degradation; higher = more compound-induced degradation of the degron-EGFP fusion; degrons are variants of IKZF1/3 zinc finger 2; compound dose not given here
experimentalConditions: Jurkat; 18 h; compound: thalidomide
Over roughly 8,300 sequences, “log2 fold change of degron read counts, EGFP-low vs EGFP+ sorted cells (limma voom), compound-induced degradation” has its median near -1.1; the highest 2% begin near 3.2. The sample as a whole holds a higher share of the highest values than the screen did.
Items are presented alongside their recorded log2 fold change of degron read counts.

| itemSequence | log2 fold change of degron read counts |
| --- | --- |
| FWCPVCGACFTQKGNLLRHIKL [46F_47W_49P_50V_52G_53A_54C_55F_67L_, Q9UKT9] | 1.36 |
| FRCEICGHQFTQKGNLLRHIKL [46F_47R_49E_50I_52G_53H_54Q_55F_67L_, Q9UKT9] | -2.14 |
| FNCPICGHYFTQKGNLLRHIKL [46F_47N_49P_50I_52G_53H_54Y_55F_67L_, Q9UKT9] | -1.44 |
| FACDICGAGFTQKGNLLRHIKL [46F_47A_49D_50I_52G_53A_54G_55F_67L_, Q9UKT9] | -1.45 |
| FYCNVCGACFTQKGNLLRHIKL [46F_47Y_49N_50V_52G_53A_54C_55F_67L_, Q9UKT9] | -0.449 |
| FWCNQCGRCFTQKGNLLRHIKL [46F_47W_49N_50Q_52G_53R_54C_55F_67L_, Q9UKT9] | -1.5 |
| FICPICGHQFTQKGNLLRHIKL [46F_47I_49P_50I_52G_53H_54Q_55F_67L_, Q9UKT9] | -1.12 |
| FMCNVCGAVFTQKGNLLRHIKL [46F_47M_49N_50V_52G_53A_54V_55F_67L_, Q9UKT9] | -0.813 |
| LACPICGFWCTQKGNLLRHIKL [46L_47A_49P_50I_52G_53F_54W_55C_67L_, Q9UKT9] | 2.45 |
| FKCPQCGACFTQKGNLLRHIKL [46F_47K_49P_50Q_52G_53A_54C_55F_67L_, Q9UKT9] | -2.34 |
| LYCNQCGFVCTQKGNLLRHIKL [46L_47Y_49N_50Q_52G_53F_54V_55C_67L_, Q9UKT9] | -1.76 |
| FCCEVCGAWFTQKGNLLRHIKL [46F_47C_49E_50V_52G_53A_54W_55F_67L_, Q9UKT9] | -0.895 |
| FQCPQCGACFTQKGNLLRHIKL [46F_47Q_49P_50Q_52G_53A_54C_55F_67L_, Q9UKT9] | 3.26 |
| FTCNVCGAGFTQKGNLLRHIKL [46F_47T_49N_50V_52G_53A_54G_55F_67L_, Q9UKT9] | 0.259 |
| FDCDICGATFTQKGNLLRHIKL [46F_47D_49D_50I_52G_53A_54T_55F_67L_, Q9UKT9] | -1.78 |
